Test system: IFNγ-induced NO production in RAW 264.7 cells
Experiment: Nitric Oxide Suppression Assay (IFNγ-induced NO, Griess nitrite readout)
Format: cell-based, mouse
Details: Table 2; ratio to RTA402
Description: Tissue Culture: RAW 264.7, a mouse macrophage cell line, was obtained from American Type Culture Collection (Manassas VA) and maintained in the log phase of growth in Roswell Park Memorial Institute Medium 1640 (RPMI 1640) supplemented with 10% heat inactivated fetal bovine serum and 1% penicillin-streptomycin. […] Nitric Oxide Suppression Assay. […] Afterwards, air bubbles were removed using ethanol vapor and absorbance was measured using a Spectramax M2e plate reader with a wavelength set to 525 nm. […]
# maps each entry to its Avg NO IC50 Relative to RTA402 (fold)

Compound: C[C@@H]1[C@H]2[C@H]3C(=O)C=C4[C@@]5(C)C=C(C#N)C(=O)C(C)(C)[C@@H]5CC[C@@]4(C)[C@]3(C)CC[C@@]2(C(=O)NC2CC2)CC[C@H]1C [Compound T86]
Tested On: IFNγ-induced NO production in RAW 264.7 cells
Avg NO IC50 Relative to RTA402 (fold): 7.09 ± 1.54 fold
//
Compound: C[C@@H]1[C@H]2[C@H]3C(=O)C=C4[C@@]5(C)C=C(C#N)C(=O)C(C)(C)[C@@H]5CC[C@@]4(C)[C@]3(C)CC[C@@]2(Cn2cnnn2)CC[C@H]1C [Compound T52]
Tested On: IFNγ-induced NO production in RAW 264.7 cells
Avg NO IC50 Relative to RTA402 (fold): 3.35 ± 0.65 fold
//
Compound: C[C@@H]1[C@H]2[C@H]3C(=O)C=C4[C@@]5(C)C=C(C#N)C(=O)C(C)(C)[C@@H]5CC[C@@]4(C)[C@]3(C)CC[C@@]2(CNS(C)(=O)=O)CC[C@H]1C [Compound T31]
Tested On: IFNγ-induced NO production in RAW 264.7 cells
Avg NO IC50 Relative to RTA402 (fold): 2.25 ± 0.49 fold
//
Compound: [2H]C([2H])([2H])C(=O)N(C)C[C@]12CC[C@@H](C)[C@H](C)[C@H]1[C@H]1C(=O)C=C3[C@@]4(C)C=C(C#N)C(=O)C(C)(C)[C@@H]4CC[C@@]3(C)[C@]1(C)CC2 [Compound T37]
Tested On: IFNγ-induced NO production in RAW 264.7 cells
Avg NO IC50 Relative to RTA402 (fold): 2.08 ± 0.31 fold
//
Compound: CNC(=O)CC[C@]12CC[C@@H](C)[C@H](C)[C@H]1[C@H]1C(=O)C[C@@H]3[C@@]4(C)C=C(C#N)C(=O)C(C)(C)[C@@H]4CC[C@@]3(C)[C@]1(C)CC2 [Compound T104]
Tested On: IFNγ-induced NO production in RAW 264.7 cells
Avg NO IC50 Relative to RTA402 (fold): 12.6 ± 1.9 fold
